Measured values drawn from ChEMBL document CHEMBL3988442 for this set.

# Tested on: Wolbachia pipientis
# assayText: Anti-Wolbachia Cell-Based Screen
# Format: functional
# Design: scale not given: in the data most compounds retested in dose-response had high values
# settings: 5 µM
About 13,000 (27%) of roughly 48,000 compounds showed an effect of 50% or more. The list shows a part of the results.
List of Percent Effect values.
Answer with a number only, understood to be in %.

In the examples that follow, each entry is paired with its recorded Percent Effect.
1) CN1CC(=O)N(C2CCC2)Cc2c(NC3CCNCC3)ncnc21 ... 107.9
2) CCn1cnnc1CN(C)C(=O)C1CCC(=O)N(CC2CCCCC2)C1 (stereo unspecified) ... 6.192
3) CC(C)Cc1ncc2c(n1)CN(C(=O)Cn1c(=O)oc3ccccc31)C2 ... -4.555

Given the molecule CC(C)n1cnnc1CN(C)C(=O)C1CCCN(C2CCN(C)CC2)C1 (stereo unspecified) , what is its reported Percent Effect?
110.4

If you can, please state the reported Percent Effect value of CCn1ccnc1CNCC1CCN(CC(O)c2ccccc2)CC1 (stereo unspecified) .
-5.873

# Percent Effect lookup, item CCN1CCN(S(=O)(=O)c2c[nH]c(C(C)C)n2)c2ccccc21
-17.2

Given the entry CCOC(=O)C1CN(S(=O)(=O)CC)Cc2ncn(CC)c21 (stereo unspecified) , report its measured Percent Effect.
10.83

Any idea what its Percent Effect is? The molecule is CC(C)CC(=O)N1CC(=O)c2sc(NCCc3ccccc3)nc2C1
112.3

GET /values?readout=Percent Effect&item= Cc1nc(-c2ccccc2)sc1C(=O)N(C1CC1)C1CC(=O)NC1=O (stereo unspecified)
-7.701

# lookup: Percent Effect of CC(C)(C)n1ncc2c(=O)n(CC(=O)NCc3ccccc3)cnc21
3.953

GET /values?readout=Percent Effect&item= Cc1ccc(NC(=O)Cc2cnc3n(C)c(=O)[nH]c(=O)n23)cc1
128

---

Listed compounds paired with reported Percent Effect
# Test system: Wolbachia pipientis
# assayText: Anti-Wolbachia Cell-Based Screen
# Assay type: functional
# Parameters: scale not given: in the data most compounds retested in dose-response had high values
# settings: 5 µM
Screen size: about 48,000 compounds; about 13,000 (27%) showed an effect of 50% or more. The list shows a part of the results.
Reply with the number, then its unit.

Solved cases (4 shown):
1. Cc1cc2n(n1)CC(CNC1CCN(C(=O)C3CC3)CC1)CN2 (stereo unspecified) ... 1.236%
2. O=C(O)C(F)(F)F.O=C(c1ncccn1)N1CC[C@H]2OCC[C@@]2(COc2ccccn2)C1 ... -10.25%
3. Cc1cc(C)n(CCCn2cncc2-c2ccc3c(c2)CC(C)N3C)n1.Cl (stereo unspecified) ... 95.59%
4. Cc1nn(C)c2ncc(S(=O)(=O)N3CCCC(C(N)=O)C3)cc12 (stereo unspecified) ... -2.512%

Form field: reported Percent Effect of O=C1N(c2ccccc2)Cc2n[nH]c(=O)n21
-1.221%

Would you mind telling me what Percent Effect value was observed for CCC(C)N1CCC(Oc2ccc(C(=O)NCCN(C)C)cc2Cl)CC1 (stereo unspecified) ?
0.8675%

---

# System: Wolbachia pipientis
# assayText: Anti-Wolbachia Cell-Based Screen
# Assay type: functional
# Parameters: scale not given: in the data most compounds retested in dose-response had high values
# settings: 5 µM
About 13,000 (27%) of roughly 48,000 compounds showed an effect of 50% or more. This is one part of the list.
valueType: Percent Effect (%)
Kindly provide the numeric value in % only, without the unit symbol.

1. O=C(NC[C@@H]1CCCN1)c1cc(COc2cccc(C(F)(F)F)c2)[nH]n1 ... 1.903
2. Cl.O=C(NCC(F)F)c1cnc(C2CCCN2)cn1 (stereo unspecified) ... 98.86
3. CN(C)Cc1cc(C2CCCCN2S(=O)(=O)c2cccc(Cl)c2)nn1C.Cl (stereo unspecified) ... 167.4
4. O=C(NCc1ccccn1)C1CN(c2nc3ccccc3s2)CCN1 (stereo unspecified) ... 4.696
5. CCC1c2ccsc2CCN1C(=O)NCc1ccccn1 (stereo unspecified) ... 11.42

For O=S(=O)(N1CCCC1)N1CCCCC1CCc1ccccc1 (stereo unspecified) , what is its reported Percent Effect?
1.463

Requested field: Percent Effect. Item: O=C(NC[C@H]1CCCN1)c1cc(COc2cccc(C(F)(F)F)c2)[nH]n1
-12.79

Bench note: what Percent Effect did Cc1nc(C(=O)NCc2ccccn2)cc(C2CCCN2)n1 (stereo unspecified) show?
186.5

Which Percent Effect reading was recorded for the compound O=S(=O)(c1cccc(Cl)c1)N1CCCC(Cn2cncn2)C1 (stereo unspecified) ?
-2.672

Look up Percent Effect: O=C(NCc1ccccn1)c1cncc(C2CCCN2)n1 (stereo unspecified)
138.1

Requested read-out: Percent Effect. Entry: CN(C)Cc1cc(C2CCCCN2S(=O)(=O)Cc2ccccc2)nn1C.Cl (stereo unspecified)
133.2

---

# Tested on: Wolbachia pipientis
# assayText: Anti-Wolbachia Cell-Based Screen
# Format: functional
# Set-up: scale not given: in the data most compounds retested in dose-response had high values
# settings: 5 µM
About 13,000 (27%) of roughly 48,000 compounds showed an effect of 50% or more. This is one part of the list.
Reported Percent Effect is given for each of the following molecules.
Please state the figure in %; there is no need to write the unit.

Worked examples follow.
1. Cn1cc(-c2cccc(CNC(=O)N3CCC[C@@H]3CO)c2)cn1 ... -23.52
2. Cc1cccnc1N1CCN(C(=O)CCc2ccccn2)CC1 ... -3.662
3. Cc1ccc(C(=O)NCCNC(=O)c2cncnc2C(C)C)cc1F ... 15.15

Fill blank: measured Percent Effect of the molecule CC(C)Cn1ncc2cc(C(=O)N(C)Cc3cccc(O)c3)cnc21 is ____.
-1.61

Param item = CC(C)CN(CC(=O)O)C(=O)c1ccc(F)cc1 ; retrieve measured Percent Effect.
116.8

Return reported Percent Effect; argument: CC(=O)Nc1cccc(CNC(=O)N(C)Cc2ccccc2)c1
-8.333

Please give the measured Percent Effect for this molecule: Cl.Cl.c1ccc(NCc2cn3c(n2)CNCC3)nc1
6.135

---

# Test system: Wolbachia pipientis
# assayText: Anti-Wolbachia Cell-Based Screen
# Assay type: functional
# Set-up: scale not given: in the data most compounds retested in dose-response had high values
# settings: 5 µM
Out of some 48,000 compounds screened, about 13,000 (27%) showed an effect of 50% or more. Some of the results follow.
Overview of reported Percent Effect across a group of compounds:
Give your result in % as a bare value.

Previously resolved entries follow.
1) CCN(Cc1nc(COC)no1)C(=O)CCn1c(C)cc2ccccc21 ... -20.66
2) Cc1cnc(N2CCCC(c3ccccc3)C2)nc1-c1ccnn1C (stereo not given) ... -17.82
3) Cc1noc2ncnc(N3CCC(O)(Cn4ccnc4)CC3)c12 ... -11.6
4) O=C(NC1CCCC1)c1cc(Cn2cnc3ccccc32)on1 ... -23.61
5) Cn1cnc(-c2nc(C(=O)NCC3CCCO3)c3ccccn23)c1 (stereo not given) ... -2.484

Give the measured Percent Effect of CN1CC=C(CCN(C)C(=O)CCc2ccccc2)CC1 .
90.24

Return reported Percent Effect; argument: CCN(Cc1c(C)nn(C)c1C)C(=O)C1COc2ccccc2C1 (stereo not given)
-5.134

Entry under review: CN(CC(=O)N1CCN(c2ncccn2)CC1)c1ccc(Cl)cn1 . Reported Percent Effect?
-31.13

# get_value(readout='Percent Effect', item= COc1cccc(-c2noc3c2CN(c2nc(C)ncc2C)CC3)c1 )
-35.21

What measured Percent Effect goes with CSCC(=O)N[C@H]1CN(Cc2c(C)noc2C)C[C@@H]1C(C)C ?
-1.777

Quick one: Percent Effect for CN(CCN1CCOCC1)C(=O)CCCOCCc1ccccc1 ?
6.061

What does the record list as Percent Effect for CN(C)Cc1nc(-n2cnc(C(=O)NCC3CC3)c2)n2ccccc12 ?
123.3

Percent Effect for COCCC(=O)N(Cc1cccnc1)CC1CCN(C2CCCC2)CC1 ?
-4.098

Item under review: CS(=O)(=O)N1CCCC(c2nc(-c3ccccc3)c[nH]2)C1 (stereo not given) . Reported Percent Effect?
-2.942

Find the recorded Percent Effect belonging to c1cncc(NCCNC2CCSC2)c1 (stereo not given) and report it.
14.04

Bench note: what Percent Effect did Cc1ccc(NCc2ccc(C#N)cc2)cc1-n1cnnn1 show?
10.93

Suppose we examine the compound CCCS(=O)(=O)N(C)C(=O)CCc1ccccc1 ; what Percent Effect value has been reported?
-9.766

# Percent Effect lookup, item CS(=O)(=O)N1CCCC(c2cncc(Nc3ccccn3)n2)C1 (stereo not given)
103.2

Value lookup for Percent Effect; key = CCCN(CCC)Cc1nnsc1Cl
-13.3

# query: Percent Effect of entry CNc1cncc(C2CCCN(S(C)(=O)=O)C2)n1 (stereo not given)
-7.969

Which measured Percent Effect value corresponds to CC(O)CN(CC(=O)NC(=O)NCC(F)(F)F)c1ccccc1 (stereo not given) ?
-9.09

For COc1cc(S(=O)(=O)N2CCCc3ccccc32)cc(C(=O)O)c1OC , what is its reported Percent Effect?
4.14

Sample CCOCCC(=O)N(C)CC1Cc2ccccc2CN1C (stereo not given) — what was its Percent Effect?
13.82

Please give the measured Percent Effect for this compound: CN(Cc1nnc2ccccn12)C(=O)NC1CCCCC1
-15.02

Dear colleague, I am looking for the recorded Percent Effect of the following compound: CCN(CC1=CCN(C)CC1)C(=O)CCOC
97.45
